tested on: 885512-296-R-J2-PDC complex spheroid viability; experiment: Anticancer human tumor 885512-296-R-J2-PDC patient-derived breast carcinoma cell line growth inhibition [GQUAD]; conditions: second compound 0.0316 µM; first compound 0.0316 µM; hits give low values
measured_quantity: viability, T/C (%)

- compound: "Nc1ccn(C2OC(CO)C(O)C2(F)F)c(=O)n1 (stereo not given) + CN(C)c1ccc(Nc2c3ccc(NC(=O)CCN4CCCC4)cc3nc3cc(NC(=O)CCN4CCCC4)ccc23)cc1"
  assay_system: "885512-296-R-J2-PDC complex spheroid viability"
  numeric_value: 9.1
- compound: "CC(=O)O[C@H]1C(=O)[C@@]2(C)[C@H]([C@H](OC(=O)c3ccccc3)[C@]3(O)C[C@H](OC(=O)[C@H](O)[C@@H](NC(=O)c4ccccc4)c4ccccc4)C(C)=C1C3(C)C)[C@]1(OC(C)=O)CO[C@@H]1C[C@@H]2O + CN(C)c1ccc(Nc2c3ccc(NC(=O)CCN4CCCC4)cc3nc3cc(NC(=O)CCN4CCCC4)ccc23)cc1"
  assay_system: "885512-296-R-J2-PDC complex spheroid viability"
  numeric_value: 7.7
- compound: "CC1COCCN1c1cc(-c2ccnn2C)c2ccnc(-c3ccn[nH]3)c2n1 (stereo not given) + Cc1[nH]c2ccc(F)cc2c1-c1nc2c3cccnc3c3ncccc3c2[nH]1"
  assay_system: "885512-296-R-J2-PDC complex spheroid viability"
  numeric_value: 44.6
- compound: "CC1COCCN1c1cc(C2(S(C)(=N)=O)CC2)nc(-c2ccnc3[nH]ccc23)n1 (stereo not given) + Cc1cnc(CNC(=O)c2c(=O)c3ccc(N4CCCN(C)CC4)nc3n3c2sc2ccccc23)cn1"
  assay_system: "885512-296-R-J2-PDC complex spheroid viability"
  numeric_value: 73.9
- compound: "C=CC(=O)N1CCN(c2nc(=O)n(-c3c(C)ccnc3C(C)C)c3nc(-c4c(O)cccc4F)c(F)cc23)C(C)C1 (stereo not given) + CN(C)c1ccc(Nc2c3ccc(NC(=O)CCN4CCCC4)cc3nc3cc(NC(=O)CCN4CCCC4)ccc23)cc1"
  assay_system: "885512-296-R-J2-PDC complex spheroid viability"
  numeric_value: 104
- compound: "CC1COCCN1c1cc(C2(O)CC3CCC(C2)O3)c2cnn(-c3ccn[nH]3)c2n1 (stereo not given) + Cc1[nH]c2ccc(F)cc2c1-c1nc2c3cccnc3c3ncccc3c2[nH]1"
  assay_system: "885512-296-R-J2-PDC complex spheroid viability"
  numeric_value: 34.7
- compound: "CCc1c2c(nc3ccc(O)cc13)-c1cc3c(c(=O)n1C2)COC(=O)[C@]3(O)CC + Cc1[nH]c2ccc(F)cc2c1-c1nc2c3cccnc3c3ncccc3c2[nH]1"
  assay_system: "885512-296-R-J2-PDC complex spheroid viability"
  numeric_value: 3.24
- compound: "C=CC(=O)N1CCN(c2nc(=O)n(-c3c(C)ccnc3C(C)C)c3nc(-c4c(O)cccc4F)c(F)cc23)C(C)C1 (stereo not given) + Cc1cnc(CNC(=O)c2c(=O)c3ccc(N4CCCN(C)CC4)nc3n3c2sc2ccccc23)cn1"
  assay_system: "885512-296-R-J2-PDC complex spheroid viability"
  numeric_value: 90.5
- compound: "C#Cc1c(F)ccc2cc(O)cc(-c3ncc4c(N5CC6CCC(C5)N6)nc(OCC56CCCN5CC(F)C6)nc4c3F)c12 (stereo not given) + Cc1cnc(CNC(=O)c2c(=O)c3ccc(N4CCCN(C)CC4)nc3n3c2sc2ccccc23)cn1"
  assay_system: "885512-296-R-J2-PDC complex spheroid viability"
  numeric_value: 81.9
- compound: "O=c1[nH]cc(F)c(=O)[nH]1 + Cc1cnc(CNC(=O)c2c(=O)c3ccc(N4CCCN(C)CC4)nc3n3c2sc2ccccc23)cn1"
  assay_system: "885512-296-R-J2-PDC complex spheroid viability"
  numeric_value: 90.9

###

test system: 885512-296-R-J2-PDC complex spheroid viability; test: Anticancer human tumor 885512-296-R-J2-PDC cell line growth inhibition [GQUAD]; conditions: second compound 10 µM; first compound 10 µM; hits give low values;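 also: spheroids exposed to the compounds for one week; percent of tumor spheroid viability relative to DMSO vehicle control wells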
Rule: viability, T/C below 1% gives met. Equal to or above 1% gives not met.

- compound: "COc1cc(C2c3cc4c(cc3C(OC3OC5COC(C)OC5C(O)C3O)C3COC(=O)C23)OCO4)cc(OC)c1O (stereo not given) + Cc1[nH]c2ccc(F)cc2c1-c1nc2c3cccnc3c3ncccc3c2[nH]1"
  assay_system: "885512-296-R-J2-PDC complex spheroid viability"
  category: "not met"
- compound: "COc1cccc2c1C(=O)c1c(O)c3c(c(O)c1C2=O)CC(O)(C(=O)CO)CC3OC1CC(N)C(O)C(C)O1 (stereo not given) + Cc1[nH]c2ccc(F)cc2c1-c1nc2c3cccnc3c3ncccc3c2[nH]1"
  assay_system: "885512-296-R-J2-PDC complex spheroid viability"
  category: "met"
- compound: "Cc1cccc(N(C)C(=O)C2C(O)CCN2c2nc(C)cc(C(F)(F)F)c2C#N)c1 (stereo not given) + Cc1[nH]c2ccc(F)cc2c1-c1nc2c3cccnc3c3ncccc3c2[nH]1"
  assay_system: "885512-296-R-J2-PDC complex spheroid viability"
  category: "not met"
- compound: "C=CC(=O)N1CCN(c2nc(=O)n(-c3c(C)ccnc3C(C)C)c3nc(-c4c(O)cccc4F)c(F)cc23)C(C)C1 (stereo not given) + Cc1[nH]c2ccc(F)cc2c1-c1nc2c3cccnc3c3ncccc3c2[nH]1"
  assay_system: "885512-296-R-J2-PDC complex spheroid viability"
  category: "not met"
- compound: "COc1ccc([C@@H](O)c2cc(-c3ncnc4cc(N5CCOCC5)ccc34)c(F)cc2Cl)nn1 + Cc1cnc(CNC(=O)c2c(=O)c3ccc(N4CCCN(C)CC4)nc3n3c2sc2ccccc23)cn1"
  assay_system: "885512-296-R-J2-PDC complex spheroid viability"
  category: "met"
- compound: "COc1ccc([C@@H](O)c2cc(-c3ncnc4cc(N5CCOCC5)ccc34)c(F)cc2Cl)nn1 + Cc1[nH]c2ccc(F)cc2c1-c1nc2c3cccnc3c3ncccc3c2[nH]1"
  assay_system: "885512-296-R-J2-PDC complex spheroid viability"
  category: "not met"
- compound: "CC(=O)O[C@H]1C(=O)[C@@]2(C)[C@H]([C@H](OC(=O)c3ccccc3)[C@]3(O)C[C@H](OC(=O)[C@H](O)[C@@H](NC(=O)c4ccccc4)c4ccccc4)C(C)=C1C3(C)C)[C@]1(OC(C)=O)CO[C@@H]1C[C@@H]2O + CN(C)c1ccc(Nc2c3ccc(NC(=O)CCN4CCCC4)cc3nc3cc(NC(=O)CCN4CCCC4)ccc23)cc1"
  assay_system: "885512-296-R-J2-PDC complex spheroid viability"
  category: "not met"
- compound: "CC1COCCN1c1cc(C2(S(C)(=N)=O)CC2)nc(-c2ccnc3[nH]ccc23)n1 (stereo not given) + Cc1cnc(CNC(=O)c2c(=O)c3ccc(N4CCCN(C)CC4)nc3n3c2sc2ccccc23)cn1"
  assay_system: "885512-296-R-J2-PDC complex spheroid viability"
  category: "met"
- compound: "CC(C)n1c(=O)n(C)c2cnc3cc(F)c(-c4ccc(OCCCN5CCCCC5)nc4)cc3c21 + Cc1[nH]c2ccc(F)cc2c1-c1nc2c3cccnc3c3ncccc3c2[nH]1"
  assay_system: "885512-296-R-J2-PDC complex spheroid viability"
  category: "not met"
- compound: "COc1cccc2c1C(=O)c1c(O)c3c(c(O)c1C2=O)CC(O)(C(=O)CO)CC3OC1CC(N)C(O)C(C)O1 (stereo not given) + Cc1cnc(CNC(=O)c2c(=O)c3ccc(N4CCCN(C)CC4)nc3n3c2sc2ccccc23)cn1"
  assay_system: "885512-296-R-J2-PDC complex spheroid viability"
  category: "met"

###

system: 885512-296-R-J2-PDC complex spheroid viability; test: Anticancer human tumor 885512-296-R-J2-PDC cell line growth inhibition [GQUAD]; conditions: second compound 10 µM; first compound 10 µM; active means viability on the fitted dose curve at most 10% of control; inactive means the rest;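 also: spheroids exposed to the compounds for one week; percent of tumor spheroid viability relative to DMSO vehicle control wells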
Classes used: 1 (yes) (active), 0 (no) (inactive)

- compound: "C=CC(=O)N1CCN(c2nc(=O)n(-c3c(C)ccnc3C(C)C)c3nc(-c4c(O)cccc4F)c(F)cc23)C(C)C1 (stereo not given) + Cc1cnc(CNC(=O)c2c(=O)c3ccc(N4CCCN(C)CC4)nc3n3c2sc2ccccc23)cn1"
  assay_system: "885512-296-R-J2-PDC complex spheroid viability"
  category: "1 (yes)"
- compound: "COc1ccc([C@@H](O)c2cc(-c3ncnc4cc(N5CCOCC5)ccc34)c(F)cc2Cl)nn1 + CN(C)c1ccc(Nc2c3ccc(NC(=O)CCN4CCCC4)cc3nc3cc(NC(=O)CCN4CCCC4)ccc23)cc1"
  assay_system: "885512-296-R-J2-PDC complex spheroid viability"
  category: "1 (yes)"
- compound: "C=CC(=O)N1CCN(c2nc(=O)n(-c3c(C)ccnc3C(C)C)c3nc(-c4c(O)cccc4F)c(F)cc23)C(C)C1 (stereo not given) + CN(C)c1ccc(Nc2c3ccc(NC(=O)CCN4CCCC4)cc3nc3cc(NC(=O)CCN4CCCC4)ccc23)cc1"
  assay_system: "885512-296-R-J2-PDC complex spheroid viability"
  category: "0 (no)"
- compound: "O=C(c1cc(Cc2n[nH]c(=O)c3ccccc23)ccc1F)N1CCN(C(=O)C2CC2)CC1 + Cc1cnc(CNC(=O)c2c(=O)c3ccc(N4CCCN(C)CC4)nc3n3c2sc2ccccc23)cn1"
  assay_system: "885512-296-R-J2-PDC complex spheroid viability"
  category: "1 (yes)"
- compound: "O=C(NO)c1cnc(N2CCN(S(=O)(=O)c3ccc4ccccc4c3)CC2)nc1 + Cc1cnc(CNC(=O)c2c(=O)c3ccc(N4CCCN(C)CC4)nc3n3c2sc2ccccc23)cn1"
  assay_system: "885512-296-R-J2-PDC complex spheroid viability"
  category: "1 (yes)"
